- Test system: red blood cells (mechanically defibrinated sheep blood)
- Experiment notes: Hemolysis assay (cell lysis)
- Format: cell-based
- Parameters: unit not given here
- Conditions used: Concentration 16 μM; 1 hour, 37° C.
Each entry below carries its recorded red blood cell lysis.
Please respond with just the number, no unit label.

The examples below pair each entry with its known result.
{"Chemical string": "CC(C)(C)c1ccc(Cc2ccc(C(C)(C)C)c(O)c2)cc1O", "red blood cell lysis": "−0.02"}
{"Chemical string": "COc1cccc(CCc2ccccc2O)c1", "red blood cell lysis": "−0.03"}
{"Chemical string": "CC(C)(C)c1ccc(CCc2ccc(C(C)(C)C)c(O)c2)cc1O", "red blood cell lysis": "−0.03"}
{"Chemical string": "CC(C)(C)c1ccc(CCc2cccc(O)c2)cc1O", "red blood cell lysis": "−0.03"}

Here is the next item to consider.
Which measured red blood cell lysis value corresponds to `COc1cc(CCc2ccc(C(C)(C)C)c(O)c2)ccc1C(C)(C)C` ? −0.03
